run-description: Metabolic stability in mouse plasma assessed parent compound remaining at 74 to 93 kBq incubated for 24 hrs by RP-HPLC analysis
Type: ADME, cell-free
run-conditions: dose 74-93 kBq, read-out: Stability
measured-endpoint: remaining at 24 h (%)

O[C@H]1CCC[C@@H]1N1CCN(CCc2cccc([125I])c2)CC1 (relative stereo); 81.3
O[C@H]1CCC[C@@H]1N1CCN(CCCc2cccc([125I])c2)CC1 (relative stereo); 94.8

* * *

test-target: Sigma intracellular receptor 2 (Rattus norvegicus)
Sequence (Q5U3Y7 whole entry): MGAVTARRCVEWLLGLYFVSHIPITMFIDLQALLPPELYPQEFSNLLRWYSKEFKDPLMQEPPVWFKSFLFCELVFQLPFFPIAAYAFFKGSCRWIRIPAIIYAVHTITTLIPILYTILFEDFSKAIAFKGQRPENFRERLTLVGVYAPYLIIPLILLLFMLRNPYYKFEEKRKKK
run-description: Displacement of [3H]DTG from sigma-2 receptor in Sprague-Dawley rat liver membrane incubated for 90 mins in presence of by liquid scintillation counter analysis (+)-pentazocine by liquid scintillation counter analysis
measured-endpoint: Ki (nM)

Some solved entries appear below for comparison.
O[C@H]1CCC[C@@H]1N1CCN(CCc2cccc(Br)c2)CC1 (relative stereo); 138
O[C@H]1CCCC[C@@H]1N1CCN(CCCc2cccc(Br)c2)CC1 (relative stereo); 22.2
O[C@H]1CCCC[C@@H]1N1CCN(CCc2ccc(Br)cc2)CC1 (relative stereo); 44.5

(I) O[C@H]1CCCC[C@@H]1N1CCN(CCCc2ccc(Br)cc2)CC1 (relative stereo)
(II) O[C@H]1CCC[C@@H]1N1CCN(CCCc2ccc(Br)cc2)CC1 (relative stereo)
Hi, I'm comparing two records. Which one has the lower Ki, I or II ? Use the label to indicate which entry you chose.
II
